EXPERIMENTAL_TARGET: human JAK2 (a.a. 828-1132) (Homo sapiens, UniProt O60674)
Construct: JAK2 (a.a. 828-1132); His tag (N); made in house; host or cells: insect cells (baculovirus)
Sequence (O60674 828-1132): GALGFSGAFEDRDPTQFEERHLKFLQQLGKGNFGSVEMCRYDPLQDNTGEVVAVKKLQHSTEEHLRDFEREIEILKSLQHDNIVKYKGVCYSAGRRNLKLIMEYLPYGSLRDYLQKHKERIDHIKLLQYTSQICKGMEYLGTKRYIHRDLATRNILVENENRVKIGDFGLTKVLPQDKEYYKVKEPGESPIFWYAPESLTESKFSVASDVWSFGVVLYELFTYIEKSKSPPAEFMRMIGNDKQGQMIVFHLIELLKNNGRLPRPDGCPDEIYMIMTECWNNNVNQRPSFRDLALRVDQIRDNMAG
EXPERIMENT: In vitro JAK kinase assay (HTRF, phosphorylation of a biotinylated peptide), JAK2
Format: biochemical
SETUP_CONDITIONS: method AA1 (30 μM ATP) or AA2 (1000 μM ATP), not stated per value
Kindly supply the reported IC50 values for the records listed here.

# query: IC50 of entry N#Cc1ccc(C(F)(F)F)cc1N1CCC(CC(=O)Nc2ccc3cc2CCc2cncc(c2)Nc2ncc(Cl)c(n2)N3)CC1 [Example A237, tris(trifluoroacetate)]
> 400 nM

# query: IC50 of entry O=C(CC1CCN(C(=O)c2ccccc2)CC1)Nc1ccc2cc1CCc1cncc(c1)Nc1ncc(Cl)c(n1)N2 [Example A192, bis(trifluoroacetate)]
> 200 nM

# query: IC50 of entry CC(C)c1cc(C(=O)N2CCC(CC(=O)Nc3ccc4cc3CCc3cncc(c3)Nc3ncc(Cl)c(n3)N4)CC2)no1 [Example A214, bis(trifluoroacetate)]
> 200 nM

# query: IC50 of entry Cc1nocc1C(=O)N1CCC(CC(=O)Nc2ccc3cc2CCc2cncc(c2)Nc2ncc(Cl)c(n2)N3)CC1 [Example A165, bis(trifluoroacetate)]
> 1000 nM
